B1: IKZF1 (parent)
chain: HIKLHSGEKPFKCHLCNYACRRRD

variants of: B1; assay: protein stability index of a GFP-peptide fusion (GPS, HEK-293T) (PSI 1-6); higher = more stable; settings: c terminus: a fixed tail appended;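 also: lentivirally expressed fusions sorted by FACS into six bins by GFP to DsRed ratio, PSI derived from sequencing read proportions per bin multiplied by bin number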
property-measured: protein stability index

Example variants with recorded protein stability index:
I2R :: 1.96
I2F :: 2.27
R22I :: 1.7
E8T :: 1.59
I2N :: 2.14

Req: Find the recorded protein stability index belonging to I2G and report it.
Resp: 2.29

Req: Follow-up item: Y18N
Resp: 1.88

Req: Follow-up item: C16Y
Resp: 1.88

Req: Follow-up item: S6T
Resp: 1.99

Req: Follow-up item: H5F
Resp: 1.97

Req: Follow-up item: N17Q
Resp: 1.43

Req: Follow-up item: N17M
Resp: 1.86
